assay: Antioxidant activity against beta-carotene and linoleic acid assessed asbleaching of beta-carotene at 60 mins by autooxidation assay; type: functional
Activity vs 10: at or above is Met, below is Not met.

- O=C1C=C[C@H](O)C[C@@]1(O)CCO (relative stereo): Met
- O=C(O)c1c[nH]c2ccccc12: Not met
- C[C@@H]1O[C@@H](O[C@@H]2[C@@H](O)[C@H](OCCc3ccc(O)c(O)c3)O[C@H](COC(=O)/C=C/c3ccc(O)c(O)c3)[C@H]2O)[C@H](O)[C@H](O)[C@H]1O [ISOACTEOSIDE]: Met
- Cc1cc(C(C)(C)C)c(O)c(C(C)(C)C)c1: Met
- COc1cc([C@H]2OC[C@]3(O[C@@H]4O[C@H](CO)[C@@H](O)[C@H](O)[C@H]4O)[C@@H](c4ccc(O)c(OC)c4)OC[C@H]23)ccc1O: Met
- O=c1cc(-c2ccc(O[C@@H]3O[C@H](CO)[C@@H](O)[C@H](O)[C@H]3O)c(O)c2)oc2cc(O)cc(O)c12: Met
- COc1cc([C@@H]2c3cc(O)c(OC)cc3C[C@H](CO)[C@H]2CO[C@@H]2O[C@H](CO)[C@@H](O)[C@H](O)[C@H]2O)ccc1O: Not met
- O=C(/C=C/c1ccc(O)c(O)c1)OCC(O)(CO)C(O)C(=O)O (stereo not drawn): Met

# credit: ChEMBL document CHEMBL1155720
